Hello, the source for this data is the supplement of paper PMC10567573, in case you need it.

// protein stability index lookup, one value per entry
B1: HNF4A (parent)
chain: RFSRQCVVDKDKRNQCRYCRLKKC

variants of: B1; assay: protein stability index of a GFP-peptide fusion (GPS, HEK-293T) (PSI 1-6); higher = more stable; settings: c terminus: a fixed tail appended;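 note: lentivirally expressed fusions sorted by FACS into six bins by GFP to DsRed ratio, PSI derived from sequencing read proportions per bin multiplied by bin number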

# record.sequence, protein stability index
measured = [
    ("RFSRGCVVDKDKRNQCRYCRLKKC [Q5G]", 2.38),
    ("RFSRQCVVDKDKRNQCTYCRLKKC [R17T]", 2.69),
    ("LFSRQCVVDKDKRNQCRYCRLKKC [R1L]", 2.31),
    ("NFSRQCVVDKDKRNQCRYCRLKKC [R1N]", 2.44),
    ("RFSRQCVVDKDKRNECRYCRLKKC [Q15E]", 2.34),
    ("RFSRQHVVDKDKRNQCRYCRLKKC [C6H]", 2.77),
    ("RFSRQCVVDKDKRNQCRYCRLKSC [K23S]", 1.41),
    ("RFSRQCVVDKDKRNQCLYCRLKKC [R17L]", 1.84),
    ("RFSEQCVVDKDKRNQCRYCRLKKC [R4E]", 2.6),
    ("RFSRQCVVDKDARNQCRYCRLKKC [K12A]", 1.51),
    ("RFSRQCVVDKDKRFQCRYCRLKKC [N14F]", 2.16),
    ("GFSRQCVVDKDKRNQCRYCRLKKC [R1G]", 2.64),
]
